# testSystem: Glucocorticoid receptor (Homo sapiens) (UniProt P04150)
# Sequence (P04150 whole entry, looked up): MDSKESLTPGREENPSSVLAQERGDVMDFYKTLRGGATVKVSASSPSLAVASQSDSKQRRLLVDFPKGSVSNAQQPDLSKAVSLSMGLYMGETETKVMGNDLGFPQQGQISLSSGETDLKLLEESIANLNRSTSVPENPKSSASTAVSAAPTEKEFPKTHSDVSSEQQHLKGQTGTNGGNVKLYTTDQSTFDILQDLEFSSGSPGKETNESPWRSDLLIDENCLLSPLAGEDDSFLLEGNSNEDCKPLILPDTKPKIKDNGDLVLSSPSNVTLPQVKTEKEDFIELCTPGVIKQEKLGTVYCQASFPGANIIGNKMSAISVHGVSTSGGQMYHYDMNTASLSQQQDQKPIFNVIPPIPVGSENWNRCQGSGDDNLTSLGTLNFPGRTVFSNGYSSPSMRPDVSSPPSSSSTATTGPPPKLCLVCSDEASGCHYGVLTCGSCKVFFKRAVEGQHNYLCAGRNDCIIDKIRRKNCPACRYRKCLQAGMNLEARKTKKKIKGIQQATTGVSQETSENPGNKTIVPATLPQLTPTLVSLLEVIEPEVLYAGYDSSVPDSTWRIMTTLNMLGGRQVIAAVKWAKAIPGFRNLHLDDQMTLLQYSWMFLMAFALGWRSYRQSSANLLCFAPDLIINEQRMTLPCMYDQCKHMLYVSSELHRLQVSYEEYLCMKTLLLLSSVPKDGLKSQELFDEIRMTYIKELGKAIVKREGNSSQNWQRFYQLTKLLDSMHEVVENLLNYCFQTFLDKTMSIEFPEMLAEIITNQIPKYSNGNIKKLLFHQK
# runDescription: qHTS assay to identify small molecule antagonists of the glucocorticoid receptor (GR) signaling pathway (AID 720692)
# runConditions: GR-bla HeLa, beta-lactamase FRET ratio, dexamethasone-stimulated, 18 h; series mostly up to 58.5 µM
Records with an inconclusive call do not appear. The source made the active and inactive calls. The call rests on the fitted dose curve; in most records, active means well fitted inhibition curve with a large enough effect in the signal ratio in the repeat runs (not every such curve was filed as active); inconclusive means weak or mixed curves, or effect the other way; inactive means no such curve, though single readings can be large or run the other way; the % refers to the signal ratio.
Valid outcomes are listed here; reply with one: active, inactive

Examples with answers:
[
  {
    "compound": "O=C(CCCCCCCCCCCCC1CCCC1)Nc1ccc(S(=O)(=O)c2ccc(NC(=O)CCCCCCCCCCCCC3CCCC3)cc2)cc1",
    "classAssignment": "inactive"
  },
  {
    "compound": "O=C(NCCNCC(O)COc1ccc(O)cc1)N1CCOCC1 (stereo not drawn)",
    "classAssignment": "inactive"
  },
  {
    "compound": "CC(=O)Oc1c(C)cc(OCC(O)CNC(C)C)c(C)c1C (stereo not drawn)",
    "classAssignment": "inactive"
  },
  {
    "compound": "O=C(O)c1cc(N=Nc2ccc(O)c(C(=O)O)c2)ccc1O",
    "classAssignment": "inactive"
  },
  {
    "compound": "C#CCOc1ccc2c(C)cc(=O)oc2c1",
    "classAssignment": "inactive"
  },
  {
    "compound": "COc1ccc(-c2noc(CC(=O)O)c2-c2ccc(OC)cc2)cc1",
    "classAssignment": "inactive"
  }
]

-- ask Hey, what did the test say about CO[C@H]1C=CO[C@@]2(C)Oc3c(C)c(O)c4c(O)c(c(/C=N/N5CCN(C6CCCC6)CC5)c(O)c4c3C2=O)NC(=O)/C(C)=C\C=C[C@H](C)[C@H](O)[C@@H](C)[C@@H](O)[C@@H](C)[C@H](OC(C)=O)[C@@H]1C ?
-- reply active

-- ask Hey, what did the test say about CS(=O)(=O)c1ccc(C2=C(c3ccccc3)C(=O)OC2)cc1 ?
-- reply inactive

-- ask Hey, what did the test say about CC(=O)N=c1sc(S(N)(=O)=O)nn1C ?
-- reply inactive

* * *

# testSystem: Nuclear receptor subfamily 1 group I member 2 (Homo sapiens) (UniProt O75469)
# runDescription: CYP3A4 induction through human pregnane X receptor (PXR) by small molecules, qHTS assay (AID 1346984); further: nearly all actives have a fitted effect of over 40% in size; further: potency means the concentration at half of the fitted maximal effect
# runConditions: DPX-2 HepG2 PXR, CYP3A4-luciferin luminescence, 24 h; series mostly up to 46.1 µM
Results filed as inconclusive are left out. The source made the active and inactive calls. The call rests on the fitted dose curve; in most records, active means well fitted activation curve with a large enough effect in the repeat runs; inconclusive means weak or mixed curves; inactive means no such curve, though single readings can be large or run the other way.
property: Potency

[
  {
    "molecule": "CCCOc1cc(N)ccc1C(=O)OCCN(CC)CC",
    "observedMeasurement": "inactive"
  },
  {
    "molecule": "Cc1cc2nc3c(=O)[nH]c(=O)nc-3n(C[C@H](O)[C@H](O)[C@H](O)COP(=O)(O)OP(=O)(O)OC[C@H]3O[C@@H](n4cnc5c(N)ncnc54)[C@H](O)[C@@H]3O)c2cc1C",
    "observedMeasurement": "inactive"
  },
  {
    "molecule": "C[C@]12C=CC(=O)N[C@@H]1CC[C@@H]1[C@@H]2CC[C@]2(C)[C@@H](C(=O)Nc3cc(C(F)(F)F)ccc3C(F)(F)F)CC[C@@H]12",
    "observedMeasurement": "inactive"
  },
  {
    "molecule": "CC(C)[C@@H](C)/C=C/[C@@H](C)[C@H]1CC[C@H]2/C(=C/C=C3\\C[C@@H](O)CC[C@@H]3C)CCC[C@]12C",
    "observedMeasurement": "inactive"
  },
  {
    "molecule": "O=C1N=C2SCCN2C(=O)C1Cc1ccc(Cl)cc1 (stereo not given)",
    "observedMeasurement": "inactive"
  },
  {
    "molecule": "CSc1nc2cc(Oc3cccc(Cl)c3Cl)c(Cl)cc2[nH]1",
    "observedMeasurement": "inactive"
  },
  {
    "molecule": "CO[C@@]1(NC(=O)C2SC(=C(C(N)=O)C(=O)O)S2)C(=O)N2C(C(=O)O)=C(CSc3nnnn3C)CS[C@@H]21 (stereo not given in full)",
    "observedMeasurement": "inactive"
  },
  {
    "molecule": "CC(=O)N[C@@H](C=O)[C@@H](O)[C@H](O)[C@H](O)CO",
    "observedMeasurement": "inactive"
  },
  {
    "molecule": "Cc1ccc(S(=O)(=O)NC(=O)N[C@@H](C)Cc2ccccc2)cc1",
    "observedMeasurement": "inactive"
  },
  {
    "molecule": "CC(=O)Nc1ccc(OC(=O)c2ccccc2O)cc1",
    "observedMeasurement": "inactive"
  }
]

Batch of 5 molecules: report Potency for each.
1. COc1cc2c(cc1OC)[C@@H](c1ccccc1)CN(C)CC2
2. O=C(O)CO.[NH2-].[NH2-].[Pt+2]
3. O=S(=O)(O)c1cc(O)c2c(N=Nc3ccc(Nc4ccccc4)c4c(S(=O)(=O)O)cccc34)cc(S(=O)(=O)O)cc2c1
4. OC1OC[C@@H](O)[C@H](O)[C@@H]1O (stereo not given in full)
5. CCN(CC)CCC(=O)N1c2ccccc2Sc2ccc(Cl)cc21

-- reply
["inactive", "inactive", "inactive", "inactive", "14.1 µM (active)"]
